These data points were gathered from PubChem BioAssay (NCI).

Test system: SF-295 CNS
Test: NCI tumour cell line growth inhibition, 48 h; in the data active = GI50 below about 0.43 µM; inactive = the rest
Bench note: report the call from 1.0 (active), 0.0 (inactive)

See these solved cases before continuing.
>>> label_class("O=C(NCCN1CCOCC1)OCc1nc2nc(Cl)nc(N3CCOCC3)c2[nH]1")
0.0
>>> label_class("COc1ccc(-c2cc(=O)n(-c3nc4ccccc4[nH]3)[nH]2)cc1OC")
0.0
>>> label_class("COC(=O)c1cc(-c2ccccc2)[nH]c1N/N=C/c1c(Cl)cccc1Cl")
1.0
>>> label_class("O=C1CCc2c(sc3[nH]c(=S)n(-c4cc(C(F)(F)F)cc(C(F)(F)F)c4)c(=O)c23)C1")
1.0
>>> label_class("C=C1C(=O)O[C@H]2[C@H]1CC/C(COC(=O)CCCCCC(=O)OC/C1=C/CC[C@@]3(C)O[C@H]3[C@H]3OC(=O)C(=C)[C@@H]3CC1)=C\\CC[C@@]1(C)O[C@@H]21")
0.0
>>> label_class("CN1CCN(Cc2c[nH]c3c2C(=O)c2c(c(O)c4ccccc4c2O)C3=O)CC1")
0.0
>>> label_class("CCCCCCCCCCCC1=NC(C)(C)CN1C(C)(C)CO")
0.0
>>> label_class("CNC(=O)NCC1OC(n2cnc3c(NC(=O)Nc4ccccc4)ncnc32)C(O[Si](C)(C)C(C)(C)C)C1O[Si](C)(C)C(C)(C)C (stereo not given)")
0.0

Exam item: Answer briefly: the call reported for COc1ccc2c(c1)/C(=C\c1ccncc1)C(=O)N2 in this assay.
Marked response: 0.0

Exam item: Try the molecule Cc1ccc(/C=C(\C#N)c2cc3ccccc3n2C)cc1
Marked response: 1.0

Exam item: Try the molecule O=[N+]([O-])c1cc[n+]([O-])c2ccccc12
Marked response: 1.0

Exam item: Try the molecule CCCCNNC(=O)c1ccc(Br)cc1
Marked response: 0.0

Exam item: Try the molecule CCCCC(SC(=S)N1CCCC1)C(=O)Nc1nc(CC(=O)OCC)cs1 (stereo not given)
Marked response: 0.0

Exam item: Try the molecule CC1=CC2C(C(O)CC3(C)C2CC(C)C32OCOC23COCO3)C2(C)C/C(=C/O)C(=O)C=C12 (stereo not given)
Marked response: 0.0

Exam item: Try the molecule CO/N=C(\COc1ccc2c(=O)c3ccccc3oc2c1)c1ccccc1
Marked response: 0.0

----------
// values below are reported log10(TGI)
Tested on: SF-295 CNS
Experiment: NCI tumour cell line growth inhibition, 48 h
Note: values are log10 of TGI expressed in µM.

Please review the entries below; each comes with its answer.
>>> reported_result("COc1ccc(/C=C(/c2ccccc2)[N+](=O)[O-])c(OC)c1")
0.59
>>> reported_result("C#CC1(O)CCC2C3CCc4cc(Oc5nc(F)nc(-c6c7ccccc7c7n6CCS7)n5)ccc4C3CC[C@@]21C (stereo not given in full)")
1.48
>>> reported_result("CNC(=O)NCC1OC(n2cnc3c(NC(=O)Nc4ccccc4)ncnc32)C(O[Si](C)(C)C(C)(C)C)C1O[Si](C)(C)C(C)(C)C (stereo not given)")
1.50
>>> reported_result("CC(C)(C)OC(=O)N/C(C=O)=C\\C1CCCCC1")
2.00
>>> reported_result("C#C[C@]1(O)CC[C@H]2[C@@H]3CC=C4c5sc(Nc6cc(F)ccc6F)nc5CC[C@]4(C)[C@H]3CC[C@@]21C")
-0.23

Exam item: Need log10(TGI), item CO/N=C(\COc1ccc2c(=O)c3ccccc3oc2c1)c1ccccc1
Marked response: 1.89

Exam item: Try the compound COc1ccc(-c2cc(=O)n(-c3nc4ccccc4[nH]3)[nH]2)cc1OC
Marked response: 0.68

Exam item: Try the compound Cc1c(C(=O)c2ccc(N)c3ccccc23)c2ccccc2n1CCN1CCOCC1
Marked response: 1.69

Exam item: Try the compound CN(C)c1ccc(Nc2c3ccccc3nc3ccccc23)cc1
Marked response: 0.44

Exam item: Try the compound COc1ccc2c(c1)/C(=C\c1ccncc1)C(=O)N2
Marked response: 1.86
